The measurements presented in this section are drawn from BindingDB's records for doi:10.1021/jm0303857.

Target chain: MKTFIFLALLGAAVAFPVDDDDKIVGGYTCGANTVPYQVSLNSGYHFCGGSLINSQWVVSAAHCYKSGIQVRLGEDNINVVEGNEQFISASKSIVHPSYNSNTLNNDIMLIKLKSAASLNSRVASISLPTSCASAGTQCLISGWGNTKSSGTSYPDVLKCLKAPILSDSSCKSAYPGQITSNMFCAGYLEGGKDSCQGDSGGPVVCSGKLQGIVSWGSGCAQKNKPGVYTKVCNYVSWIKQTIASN
MEASURED_METRIC: IC50 (µM)
Please respond with the number in µM and leave the unit unwritten.

So what's the measured IC50 for this one? CN[C@H](Cc1ccccc1)C(=O)N1CCC[C@H]1C(=O)N[C@H](CC(=O)c1nc2ccccc2s1)C1CCC(N)CC1 (some centres not stated)
58

State the recorded IC50 for this entry: CN[C@H](Cc1ccccc1)C(=O)N1CCC[C@H]1C(=O)N[C@@H](CC(=O)c1nc2ccccc2s1)C1CCC(N)CC1 (some centres not stated)
22
